system: KRAS patient-derived spheroids with HUVEC/MSC, viability; assay: Anticancer human tumor 941728-121-R-J1-PDC patient-derived lung adenocarcinoma cell line growth inhibition [KRAS2]; conditions: second compound 0.316 µM; first compound 0.1 µM; hits give low values;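 further: spheroids exposed to agents for seven days before readout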
measurement.type: viability, T/C (%)
Dear colleague, please return just the value in %, with no unit written.

Previously resolved entries follow.
molecule	measurement.type	unit.abbreviation	value.observed
CCN1CCN(Cc2ccc(Nc3ncc(F)c(-c4cc(F)c5nc(C)n(C(C)C)c5c4)n3)nc2)CC1 + CC1OCC2(CCN(c3cnc(Sc4ccnc(N)c4Cl)c(N)n3)CC2)C1N	viability, T/C	%	31.7
CC1(C)CCC(CN2CCN(c3ccc(C(=O)NS(=O)(=O)c4ccc(NCC5CCOCC5)c([N+](=O)[O-])c4)c(Oc4cnc5[nH]ccc5c4)c3)CC2)=C(c2ccc(Cl)cc2)C1 + CC1OCC2(CCN(c3cnc(Sc4ccnc(N)c4Cl)c(N)n3)CC2)C1N	viability, T/C	%	24.3
CC1COCCN1c1cc(-c2ccnn2C)c2ccnc(-c3ccn[nH]3)c2n1 (stereo unspecified) + CNCc1ccccc1-c1csc(C(C)Nc2nc(C)nc3cc(OC)c(OC)cc23)c1	viability, T/C	%	29

Return the recorded viability, T/C value; entry: CN(C)C/C=C/C(=O)Nc1cc2c(Nc3ccc(F)c(Cl)c3)ncnc2cc1O[C@H]1CCOC1 + COc1cc2nc(C)nc(NC(C)c3cc(N)cc(C(F)(F)F)c3)c2cc1OC1CCOC1
36.4

Complete the entry with viability, T/C for CN(C)C/C=C/C(=O)Nc1cc2c(Nc3ccc(F)c(Cl)c3)ncnc2cc1O[C@H]1CCOC1 + C=CC(=O)N1CCN(c2nc(=O)n(-c3c(C)ccnc3C(C)C)c3nc(-c4c(O)cccc4F)c(F)cc23)C(C)C1
16.4

Complete the entry with viability, T/C for CC(C)NCC(C(=O)N1CCN(c2ncnc3c2C(C)CC3O)CC1)c1ccc(Cl)cc1 (stereo unspecified) + C=CC(=O)N1CCN(c2nc(OCC3CCCN3C)nc3c2CCN(c2cccc4cccc(C)c24)C3)CC1CC#N
26.6

Report viability, T/C for CC(C)n1nc(-c2ccc3oc(N)nc3c2)c2c(N)ncnc21 + C=CC(=O)N1CCN(c2nc(OCC3CCCN3C)nc3c2CCN(c2cccc4cccc(C)c24)C3)CC1CC#N
9.77

Give the reported value of viability, T/C for this record: O=C(c1cc(Cc2n[nH]c(=O)c3ccccc23)ccc1F)N1CCN(C(=O)C2CC2)CC1 + CNCc1ccccc1-c1csc(C(C)Nc2nc(C)nc3cc(OC)c(OC)cc23)c1
45.5

Give me measured viability, T/C, please, for this molecule: CC(C)n1nc(-c2ccc3oc(N)nc3c2)c2c(N)ncnc21 + C=CC(=O)N1CCN(c2nc(=O)n(-c3c(C)ccnc3C(C)C)c3nc(-c4c(O)cccc4F)c(F)cc23)C(C)C1
3.22

Name the recorded viability, T/C of the molecule listed here: Cn1nccc1Nc1nccc(-c2cc3c(s2)C(C)(C)N(CCN2CCOCC2)C3=O)n1 + CNCc1ccccc1-c1csc(C(C)Nc2nc(C)nc3cc(OC)c(OC)cc23)c1
37.9

Supply viability, T/C value. Item: Cn1ncnc1[C@H]1c2n[nH]c(=O)c3cc(F)cc(c23)N[C@@H]1c1ccc(F)cc1 + CC1OCC2(CCN(c3cnc(Sc4ccnc(N)c4Cl)c(N)n3)CC2)C1N
28.1

Quote viability, T/C reported for CC(=O)OC12COC1CC(O)C1(C)C(=O)C(O)C3=C(C)C(OC(=O)C(O)C(NC(=O)OC(C)(C)C)c4ccccc4)CC(O)(C(OC(=O)c4ccccc4)C21)C3(C)C (stereo unspecified) + CC1OCC2(CCN(c3cnc(Sc4ccnc(N)c4Cl)c(N)n3)CC2)C1N please.
30.2
